Test: A CellTox Green Cytotoxicity Assay to monitor cytotoxicity in HEK293 cells - 24 hour (AID 1224875); also: nearly all actives have a fitted effect of over 45% in size
Details: CellTox Green fluorescence; series mostly up to 76.8 µM
Records with an inconclusive call do not appear. Calls of active or inactive are those of the source. Calls follow the shape of the dose curve; as a rule, active = well fitted activation curve with a large enough effect in the repeat runs; inconclusive = weak or mixed curves; inactive = flat fitted curve, though single readings scatter.
assay-metric: outcome

Consider the following illustrative entries.
Identify outcome associated with the compound CN1Cc2c(N)cccc2C(c2ccccc2)C1 (stereo unspecified)
inactive

Identify outcome associated with the compound CCCCC(=O)O
inactive

Identify outcome associated with the compound CC(C=O)Cc1ccc(C(C)(C)C)cc1 (stereo unspecified)
inactive

Identify outcome associated with the compound OC[C@H]1O[C@@H](Oc2ccc(O)cc2)[C@H](O)[C@@H](O)[C@@H]1O
inactive

Identify outcome associated with the compound O=C1CCCCCCCCCCC1
inactive

Identify outcome associated with the compound CCOC(=O)c1ccc(O)cc1
inactive

Identify outcome associated with the compound Cc1cc(C)c(O)c(C)c1
inactive

Identify outcome associated with the compound CN1CCCC1=O
inactive

Identify outcome associated with the compound COC(=O)/C=C\C(=O)OC
inactive

Identify outcome associated with the compound OC1CCCCC1
inactive

Continuing:
Identify outcome associated with the compound COc1ccc2cc3[n+](cc2c1OC)CCc1cc2c(cc1-3)OCO2
inactive

Identify outcome associated with the compound CCCCC(CC)COC(=O)c1ccc(C(=O)OCC(CC)CCCC)cc1 (stereo unspecified)
inactive

Identify outcome associated with the compound O=c1n(CCCN2CCN(c3cccc(Cl)c3)CC2)nc2ccccn12
inactive

Identify outcome associated with the compound Cc1cc(CC(=O)O)n(C)c1C(=O)c1ccc(Cl)cc1
inactive

Identify outcome associated with the compound CC(O)CNCC(C)O (stereo unspecified)
inactive
